Each entry below carries its measured pIC50, system: human Gal-1 (hGal-1) (Homo sapiens).
Sequence (P09382 whole entry): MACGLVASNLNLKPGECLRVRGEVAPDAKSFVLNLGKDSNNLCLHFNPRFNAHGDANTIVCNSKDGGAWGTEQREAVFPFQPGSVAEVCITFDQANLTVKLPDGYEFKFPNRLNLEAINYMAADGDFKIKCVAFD
Bear in mind: pIC50 is minus log10 of a mol/L concentration; give just that figure.

CCN(C)C(=O)[C@@H](S[C@@H]1O[C@H](CO)[C@H](O)[C@H](n2cc(-c3cc(F)c(F)c(F)c3)nn2)[C@H]1O)C1(O)CCOCC1 [Example 2.41.203S.]    7.17
CO[C@@H]1[C@@H](n2cc(-c3cc(F)c(F)c(F)c3)nn2)[C@@H](O)[C@@H](CO)O[C@H]1S[C@@H](C(=O)N1CCC(F)(F)CC1)C1(O)CCC(F)(F)CC1 [Example 2.44.226R.I.]    5.24

# context switch: different compound, same pIC50
Value (pIC50, human Gal-1 (hGal-1) (Homo sapiens)) for record CO[C@@H]1[C@@H](n2cc(-c3cc(F)c(F)c(F)c3)nn2)[C@@H](O)[C@@H](CO)O[C@H]1SC(C(=O)N(C)C12CC(C1)C2)C1(O)CCC(F)(F)CC1 (stereo partly drawn) [Example 2.44.247.I.] = 7.52
